Tested on: Escherichia coli
test_summary: Antibacterial activity against wild type Escherichia coli CFT073 (ATCC 700928) assessed as bacterial growth by broth microdilution assay
Format: functional
value_kind: MIC

>  <compound>
CC(Oc1ccc2ncc(/C=C/C(=O)O)c(C3CC3)c2c1)c1c(Cl)cccc1C#N (stereo unspecified)

>  <value_kind>
MIC

>  <observed_result>
> 100 µM

$$$$
>  <compound>
CC(C)Oc1ccc2ncc(/C=C/C(=O)O)c(C3CC3)c2c1

>  <value_kind>
MIC

>  <observed_result>
> 100 µM

$$$$
>  <compound>
C[C@H](Oc1ccc2ncc(/C=C/C(=O)O)c(C(F)F)c2c1)c1c(Cl)ccc(F)c1Cl

>  <value_kind>
MIC

>  <observed_result>
25 µM

$$$$
>  <compound>
C[C@H](Oc1ccc2ncc(/C=C/c3nn[nH]n3)c(C3CC3)c2c1)c1c(Cl)ccc(F)c1Cl

>  <value_kind>
MIC

>  <observed_result>
12 µM

$$$$
>  <compound>
C[C@H](Oc1ccc(NC(=O)CC(=O)O)c(C2CC2)n1)c1c(Cl)ccc(F)c1Cl

>  <value_kind>
MIC

>  <observed_result>
> 100 µM

$$$$
>  <compound>
C[C@H](Oc1ccc2ncc(/C=C/C(=O)O)c(N(C)C)c2c1)c1c(Cl)ccc(F)c1Cl

>  <value_kind>
MIC

>  <observed_result>
> 100 µM

$$$$
>  <compound>
C[C@H](Oc1ccc2ncc(/C=C/C(=O)O)c(C3COC3)c2c1)c1c(Cl)ccc(F)c1Cl

>  <value_kind>
MIC

>  <observed_result>
> 100 µM

$$$$
>  <compound>
C[C@H](Oc1ccc2ncc(S(=O)(=O)CC(=O)O)c(C3CC3)c2c1)c1c(Cl)ccc(F)c1Cl

>  <value_kind>
MIC

>  <observed_result>
> 100 µM

$$$$
>  <compound>
C[C@H](Oc1cc(B(O)O)c2ncc(/C=C/C(=O)O)c(C3CC3)c2c1)c1c(Cl)ccc(F)c1Cl

>  <value_kind>
MIC

>  <observed_result>
> 100 µM

$$$$
>  <compound>
Cc1cnn(C)c1[C@H](C)Oc1ccc2ncc(/C=C/C(=O)O)c(C3CC3)c2c1

>  <value_kind>
MIC

>  <observed_result>
> 100 µM

$$$$
>  <compound>
C[C@H](Oc1ccc2ncc(/C=C/C(=O)O)c(CF)c2c1)c1c(Cl)ccc(F)c1Cl

>  <value_kind>
MIC

>  <observed_result>
> 100 µM

$$$$
>  <compound>
C[C@H](Oc1ccc2ncc(/C=C/C(=O)O)c(C3CC3)c2c1)c1c(Cl)ccc(N)c1Cl

>  <value_kind>
MIC

>  <observed_result>
63 µM

$$$$
>  <compound>
C[C@H](Oc1ccc2ncc(-c3ccn(CCC(=O)O)n3)c(C3CC3)c2c1)c1c(Cl)cccc1Cl

>  <value_kind>
MIC

>  <observed_result>
> 100 µM

$$$$
>  <compound>
C[C@H](Oc1ccnc(C2CC2)c1)c1c(Cl)ccc(F)c1Cl

>  <value_kind>
MIC

>  <observed_result>
> 100 µM

$$$$
>  <compound>
C[C@H](Oc1ccc2ncc(/C=C/C(=O)NS(C)(=O)=O)c(C3CC3)c2c1)c1c(Cl)cccc1Cl

>  <value_kind>
MIC

>  <observed_result>
35 µM

$$$$
>  <compound>
C[C@H](Oc1cnc2cnc(/C=C/C(=O)O)c(C3CC3)c2c1)c1c(Cl)cccc1Cl

>  <value_kind>
MIC

>  <observed_result>
> 100 µM

$$$$
>  <compound>
C[C@H](Oc1ccc2ncc(/C=C/C(N)=O)c(C3CC3)c2c1)c1c(Cl)ccc(F)c1Cl

>  <value_kind>
MIC

>  <observed_result>
> 100 µM

$$$$
>  <compound>
C[C@H](Oc1ccc2c(c1)c(C1CC1)c(/C=C/C(=O)O)c[n+]2[O-])c1c(Cl)ccc(F)c1Cl

>  <value_kind>
MIC

>  <observed_result>
> 100 µM

$$$$
>  <compound>
O=C(O)/C=C/c1cnc2ccc(O[C@@H](CO)c3c(Cl)cccc3Cl)cc2c1C1CC1

>  <value_kind>
MIC

>  <observed_result>
> 100 µM

$$$$
>  <compound>
C[C@H](Oc1nccc(N(c2nc(C(=O)O)cs2)C2CC2)n1)c1c(Cl)ccc(F)c1Cl

>  <value_kind>
MIC

>  <observed_result>
> 100 µM

$$$$
>  <compound>
Cc1c(/C=C/C(=O)O)cnc2ccc(O[C@@H](C)c3c(Cl)ccc(F)c3Cl)cc12

>  <value_kind>
MIC

>  <observed_result>
> 100 µM

$$$$
>  <compound>
C[C@H](Oc1ccc(/C=C/C(=O)O)c(CC2CC2)c1)c1c(Cl)ccc(F)c1Cl

>  <value_kind>
MIC

>  <observed_result>
> 100 µM

$$$$
>  <compound>
C[C@H](Oc1ccc2ncc(/C=C/C(=O)O)c(O)c2c1)c1c(Cl)ccc(F)c1Cl

>  <value_kind>
MIC

>  <observed_result>
> 100 µM

$$$$
>  <compound>
C[C@H](Oc1ccc2nc(OCCN)c(CCC(=O)O)c(C3CC3)c2c1)c1c(Cl)ccc(F)c1Cl

>  <value_kind>
MIC

>  <observed_result>
> 100 µM

$$$$
>  <compound>
C[C@H](Oc1ccc2ncc(/C=C/C(=O)O)c(C3CC3)c2c1)c1c(Cl)ccc(F)c1Cl

>  <value_kind>
MIC

>  <observed_result>
79 µM

$$$$
>  <compound>
C[C@H](Oc1ccc2ncc(/C=C/C(=O)O)c(C3CC3)c2c1)c1c(Cl)cccc1Cl

>  <value_kind>
MIC

>  <observed_result>
30 µM

$$$$
>  <compound>
C[C@H](Oc1ccc2ncc(/C=C/C(=O)O)c(C#N)c2c1)c1c(Cl)ccc(F)c1Cl

>  <value_kind>
MIC

>  <observed_result>
> 100 µM

$$$$
>  <compound>
C[C@H](Oc1ccnc(C2CC2)n1)c1c(Cl)ccc(F)c1Cl

>  <value_kind>
MIC

>  <observed_result>
> 100 µM

$$$$
>  <compound>
C[C@H](Oc1ccc2c(c1)CN(CCC(=O)O)CC2)c1c(Cl)ccc(F)c1Cl

>  <value_kind>
MIC

>  <observed_result>
> 100 µM

$$$$
>  <compound>
C[C@H](Oc1ccc2ncc(/C=C/c3nn[nH]n3)c(C3CC3)c2c1)c1c(Cl)cccc1Cl

>  <value_kind>
MIC

>  <observed_result>
12 µM

$$$$
>  <compound>
C[C@H](Oc1ccc2ncc(/C=C/C(=O)N3CC[C@@H](N)[C@H](C(=O)O)C3)c(C3CC3)c2c1)c1c(Cl)ccc(F)c1Cl (mixture of isomers)

>  <value_kind>
MIC

>  <observed_result>
> 100 µM

$$$$
>  <compound>
C[C@H](Oc1ccc2nnc(/C=C/C(=O)O)c(C3CC3)c2c1)c1c(Cl)ccc(F)c1Cl

>  <value_kind>
MIC

>  <observed_result>
> 100 µM

$$$$
>  <compound>
C[C@H](Oc1ccc(/C=C/C(=O)O)c(C2CC2)c1)c1c(Cl)ccc(F)c1Cl

>  <value_kind>
MIC

>  <observed_result>
> 100 µM

$$$$
>  <compound>
C[C@H](Oc1ccc(/C=C/C(=O)O)cc1)c1c(Cl)ccc(F)c1Cl

>  <value_kind>
MIC

>  <observed_result>
> 100 µM

$$$$
>  <compound>
C[C@H](Oc1ccc2ncc(CCC(=O)O)c(C3CC3)c2c1)c1c(Cl)ccc(F)c1Cl

>  <value_kind>
MIC

>  <observed_result>
> 100 µM

$$$$
>  <compound>
C[C@H](Oc1ccc2ncc(/C=C/c3nn[nH]n3)c(C(F)F)c2c1)c1c(Cl)cccc1Cl

>  <value_kind>
MIC

>  <observed_result>
25 µM

$$$$
